target: Influenza virus A/California/7/2009pdm (H1N1pdm) (Influenza A virus A/California/7/2009pdm (H1N1pdm)); assay: cell-based or functional assay
Assign HI activity to each entry below.

Example results:
BINDER	HI activity
Group 3 representative clone F081-281, Fab-PP-type antibody (Fab, V domains shown) VH: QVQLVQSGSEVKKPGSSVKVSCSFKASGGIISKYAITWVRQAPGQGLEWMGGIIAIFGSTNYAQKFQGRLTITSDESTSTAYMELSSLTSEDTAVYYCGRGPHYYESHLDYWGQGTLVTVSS VL: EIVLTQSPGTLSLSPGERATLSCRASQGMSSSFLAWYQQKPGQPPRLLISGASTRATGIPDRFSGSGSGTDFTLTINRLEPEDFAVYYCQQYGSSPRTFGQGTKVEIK	> 160 µg/mL
Group 51 representative clone F083-302, Fab-PP-type antibody (Fab, V domains shown) VH: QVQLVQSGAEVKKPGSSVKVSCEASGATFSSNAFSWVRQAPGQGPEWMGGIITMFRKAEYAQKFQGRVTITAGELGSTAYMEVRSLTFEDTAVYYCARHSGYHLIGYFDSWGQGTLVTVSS VL: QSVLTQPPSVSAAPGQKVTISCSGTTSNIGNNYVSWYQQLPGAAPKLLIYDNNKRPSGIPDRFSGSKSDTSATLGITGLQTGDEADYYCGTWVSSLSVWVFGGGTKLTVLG	> 160 µg/mL

// below: HI activity requested for another binder
*Q* For the binder Group 39 representative clone F082-237, Fab-PP-type antibody (Fab, V domains shown) VH: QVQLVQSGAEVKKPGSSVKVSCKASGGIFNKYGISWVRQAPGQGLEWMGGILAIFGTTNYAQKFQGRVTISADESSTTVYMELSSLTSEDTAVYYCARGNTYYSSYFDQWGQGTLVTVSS VL: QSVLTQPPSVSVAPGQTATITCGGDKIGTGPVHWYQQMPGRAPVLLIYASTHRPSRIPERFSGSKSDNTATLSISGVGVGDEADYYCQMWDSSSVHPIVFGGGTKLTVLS , give its reported HI activity.
*A* > 160 µg/mL
